Reference for the values: patent US20210214461A1

Biological target: pre-existing anti-scFv903 antibodies in human serum H105 (human)
Experiment: competition ADA bridging ELISA, 100 mcg/ml competitor
TEST READOUT: % reduction in OD (%)
The reply should be a number in %, with the unit left off.

# lookup: % reduction in OD of scFv 791 (scFv) scFv: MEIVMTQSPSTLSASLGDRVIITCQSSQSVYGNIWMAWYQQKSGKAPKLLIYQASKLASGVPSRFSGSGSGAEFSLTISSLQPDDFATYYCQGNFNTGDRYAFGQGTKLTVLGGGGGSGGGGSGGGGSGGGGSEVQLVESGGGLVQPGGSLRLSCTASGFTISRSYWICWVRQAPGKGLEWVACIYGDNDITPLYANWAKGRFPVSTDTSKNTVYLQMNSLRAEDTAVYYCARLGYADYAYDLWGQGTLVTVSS
-96.9
